Every entry's value here was drawn from patent US9512075B2.

Assign MIC to each entry below.
- Tested on: Escherichia coli BE1121 strain
- protocol-text: MIC for Escherichia coli BE1121 strain
- Type: cell-based
- condition-set: Escherichia coli, BE1121STRAIN; BE1121 strain; regular bouillon medium, 37° C. overnight, turbidity; read-out: MIC Escherichia coli BE1121
Numbers only, in µg/mL.

Please review the following examples before continuing.
- molecule: "CCCCCCCCCCOC(C)C(=O)c1c(O)c2ccccc2oc1=O (stereo not drawn) [B017]"
  measured-value: 256
- molecule: "CCCCCCCCCC(=O)NCC(=O)c1c(O)c2ccccc2oc1=O [B016, 3-decanoylaminoacetyl-4-hydroxycoumarin]"
  measured-value: 256
- molecule: "CCCCC1CCC(C(O)=C2C(=O)N(C(=O)Nc3ccccc3)c3ccc(Br)cc32)CC1 (stereo not drawn) [A034]"
  measured-value: 128
- molecule: "CCCCCCCCCC(O)=C1C(=O)N(C(=O)Nc2ccccc2)c2ccc(F)cc21 [A044]"
  measured-value: 256
- molecule: "CCCCC1CCC(C(=O)c2c(O)c3cc(F)ccc3oc2=O)CC1 (stereo not drawn) [B009]"
  measured-value: 4
- molecule: "O=C(NCC(=O)c1c(O)c2ccccc2oc1=O)c1ccccc1 [B013, 3-benzoylaminoacetyl-4-hydroxycoumarin]"
  measured-value: 256
- molecule: "CCCCCCCCCC(O)=C1C(=O)N(C(=O)Nc2ccc(F)cc2)c2ccccc21 [A042]"
  measured-value: 256
- molecule: "CCCCCCCCCCOCC(O)=C1C(=O)N(C(=O)Nc2ccccc2)c2ccc(Br)cc21 [A035]"
  measured-value: 128

Could you report MIC for every entry in the following list?
1. CCCCCCCCOCC(O)=C1C(=O)N(C(=O)Nc2ccccc2)c2ccccc21 [A058]
2. CCCCCCCCCCOCC(O)=C1C(=O)N(C(C)=O)c2ccc(Br)cc21 [A029]

128
128

Could you report MIC for every entry in the following list?
1. CCCCCCCCCCOCC(O)=C1C(=O)N(C(C)=O)c2ccc(F)cc21 [A023]
2. CCCCCCCCCC(=O)c1c(O)c2ccc(OC)cc2oc1=O [B001, 3-decanoyl-4-hydroxy-7-methoxycoumarin]
3. CCCCCCCCCC(=O)N1C(=O)/C(=C(\O)COC)c2cc(F)ccc21 [A050]

1. 128
2. 256
3. 128

Could you report MIC for every entry in the following list?
1. CCCCCCCCCCOCC(O)=C1C(=O)N(C(=O)OC(C)(C)C)c2cc(Cl)ccc21 [A012]
2. CCCCCCCCCCOC(C)C(O)=C1C(=O)N(C(=O)NCCCC)c2ccccc21 (stereo not drawn) [A020]
3. CCCCCCCCOCC(O)=C1C(=O)N(C(C)=O)c2ccccc21 [A057, N-acetyl-3-octyloxyacetyl-2-oxyindole]
4. CCCCCCCCCCOCC(O)=C1C(=O)N(C(=O)Nc2ccccc2)c2ccc(F)cc21 [A036]

256
256
128
128

Endpoint output: MIC of CCCCCCCCCC(O)=C1C(=O)N(C(=O)Nc2ccc(OC)cc2)c2ccc(F)cc21 [A048] . Value?
256
